Form field: mean fluorescence intensity (one value per entry).
Target: T1, human CD47, full length, on transfected cells (human, UniProt Q08722 19-323)
T1 construct: whole, on cells; also called CHOK1-hCD47
Test: FACS CHOK1-hCD47; Ab 0.0128 nM
assay.readout: mean fluorescence intensity

[[record]]
binder = "25E3B5 (antibody, V domains shown, Murine hybridoma antibody purified on protein G) VH: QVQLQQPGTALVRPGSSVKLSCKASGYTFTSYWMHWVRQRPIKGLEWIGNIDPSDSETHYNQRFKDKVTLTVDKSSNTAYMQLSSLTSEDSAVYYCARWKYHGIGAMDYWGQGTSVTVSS VL: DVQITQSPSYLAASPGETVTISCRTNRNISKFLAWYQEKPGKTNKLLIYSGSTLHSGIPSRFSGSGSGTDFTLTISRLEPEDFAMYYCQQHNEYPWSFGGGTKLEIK"
measured_value = 120

[[record]]
binder = "132D1E5 (antibody, V domains shown, Murine hybridoma antibody purified on protein G) VH: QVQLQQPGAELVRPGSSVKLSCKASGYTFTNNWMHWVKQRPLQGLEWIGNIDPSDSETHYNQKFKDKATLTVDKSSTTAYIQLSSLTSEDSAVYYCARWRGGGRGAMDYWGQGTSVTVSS VL: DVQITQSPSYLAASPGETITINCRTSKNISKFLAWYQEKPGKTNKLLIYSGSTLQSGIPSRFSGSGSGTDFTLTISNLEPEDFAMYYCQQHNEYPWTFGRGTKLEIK"
measured_value = 88.4

[[record]]
binder = "51E2F11 (antibody, V domains shown, Murine hybridoma antibody purified on protein G) VH: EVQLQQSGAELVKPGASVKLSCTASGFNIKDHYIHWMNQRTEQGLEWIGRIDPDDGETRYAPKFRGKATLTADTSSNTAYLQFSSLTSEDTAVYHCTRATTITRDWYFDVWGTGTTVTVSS VL: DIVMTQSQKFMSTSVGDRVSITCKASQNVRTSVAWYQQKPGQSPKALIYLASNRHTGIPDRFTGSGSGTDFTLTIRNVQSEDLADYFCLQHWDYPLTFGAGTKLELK"
measured_value = 174

[[record]]
binder = "20H4G5 (antibody, V domains shown, Murine hybridoma antibody purified on protein G) VH: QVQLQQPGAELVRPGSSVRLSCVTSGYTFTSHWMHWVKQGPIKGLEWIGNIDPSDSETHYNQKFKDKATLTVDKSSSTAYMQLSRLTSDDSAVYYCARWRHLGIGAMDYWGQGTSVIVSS VL: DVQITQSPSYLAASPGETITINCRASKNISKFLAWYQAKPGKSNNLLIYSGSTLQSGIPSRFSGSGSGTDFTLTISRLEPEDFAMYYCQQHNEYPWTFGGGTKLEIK"
measured_value = 233

